target: human Cystic Fibrosis Transmembrane Conductance Regulator (CFTR) harboring the ΔF508 mutation (Homo sapiens, UniProt P13569, DEL508-508); construct: expressed in transfected cells; host or cells: H441 carcinoma line (G418-selected); assay: H441 cell ΔF508-CFTR-HRP cell surface assay (Emax and EC50); type: cell-based; conditions: NCI-H441, NA = Not active
Sequence (P13569 with tags, fused parts or gaps DEL508-508): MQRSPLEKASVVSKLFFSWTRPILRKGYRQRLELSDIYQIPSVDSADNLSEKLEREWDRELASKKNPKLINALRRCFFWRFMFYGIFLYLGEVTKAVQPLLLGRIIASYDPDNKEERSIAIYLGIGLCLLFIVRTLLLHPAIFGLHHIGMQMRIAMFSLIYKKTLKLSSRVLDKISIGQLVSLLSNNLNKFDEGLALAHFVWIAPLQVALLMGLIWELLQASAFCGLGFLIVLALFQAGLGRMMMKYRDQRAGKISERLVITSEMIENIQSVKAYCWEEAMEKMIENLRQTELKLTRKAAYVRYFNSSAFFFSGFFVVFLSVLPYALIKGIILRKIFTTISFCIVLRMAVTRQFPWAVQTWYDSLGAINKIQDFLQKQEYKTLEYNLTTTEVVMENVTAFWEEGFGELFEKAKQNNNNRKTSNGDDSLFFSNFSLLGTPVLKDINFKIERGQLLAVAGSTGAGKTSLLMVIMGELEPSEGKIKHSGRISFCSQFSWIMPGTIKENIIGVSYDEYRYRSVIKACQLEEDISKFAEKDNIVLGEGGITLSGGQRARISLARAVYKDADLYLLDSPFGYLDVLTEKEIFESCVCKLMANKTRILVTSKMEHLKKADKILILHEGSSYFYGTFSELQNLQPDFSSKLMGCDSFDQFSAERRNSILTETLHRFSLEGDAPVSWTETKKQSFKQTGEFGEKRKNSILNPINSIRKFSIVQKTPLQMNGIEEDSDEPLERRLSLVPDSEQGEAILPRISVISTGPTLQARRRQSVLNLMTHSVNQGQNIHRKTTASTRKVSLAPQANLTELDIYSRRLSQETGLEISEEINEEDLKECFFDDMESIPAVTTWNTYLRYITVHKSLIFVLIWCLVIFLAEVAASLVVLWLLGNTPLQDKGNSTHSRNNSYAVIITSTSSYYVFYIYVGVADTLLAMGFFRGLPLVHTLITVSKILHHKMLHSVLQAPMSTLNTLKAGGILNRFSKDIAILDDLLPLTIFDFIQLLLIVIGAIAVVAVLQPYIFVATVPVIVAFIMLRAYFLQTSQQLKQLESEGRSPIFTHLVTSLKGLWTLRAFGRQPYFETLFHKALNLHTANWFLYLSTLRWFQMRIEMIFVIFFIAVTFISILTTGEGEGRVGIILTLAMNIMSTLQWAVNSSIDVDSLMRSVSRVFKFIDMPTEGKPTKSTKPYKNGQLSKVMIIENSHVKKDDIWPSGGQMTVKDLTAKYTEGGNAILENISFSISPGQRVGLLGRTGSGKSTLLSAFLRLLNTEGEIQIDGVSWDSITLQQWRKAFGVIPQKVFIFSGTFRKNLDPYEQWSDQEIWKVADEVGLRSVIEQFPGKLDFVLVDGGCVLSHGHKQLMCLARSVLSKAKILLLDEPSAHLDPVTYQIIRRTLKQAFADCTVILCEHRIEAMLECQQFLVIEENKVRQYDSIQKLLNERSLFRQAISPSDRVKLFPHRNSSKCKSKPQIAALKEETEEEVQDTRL
quantity_name: Emax (%)

# compound, Emax / %
measured = [
    ("CCC(C)(C)[C@H](NC(=O)c1ccc2ccc(C(F)(F)F)cc2c1OCc1ccc(C(F)(F)F)cc1)C(=O)O [Example 295]", 229),
]

(I) CC(C)(C)[C@H](NC(=O)c1ccc2c(F)cccc2c1OCc1ccc(C(F)(F)F)cc1)C(=O)O [Example 236]
(II) O=C(N[C@H](C(=O)O)C(c1ccccc1)c1ccccc1)c1ccc2cc(F)ccc2c1OCc1ccc(Cl)c(Cl)c1 [Example 209]
(III) O=C(N[C@H](C(=O)O)[C@H](O)c1ccccc1)c1ccc2ccccc2c1OCc1ccc(C(F)(F)F)cc1 [Example 129]
(IV) O=C(N[C@H](C(=O)O)C(c1ccccc1)c1ccccc1)c1ccc2ccccc2c1OCc1ccc(C(F)(F)C(F)(F)F)cc1 [Example 131]
(V) O=C(N[C@@H](Cc1ccccc1)C(=O)O)c1ccc2ccccc2c1OCc1ccccc1C(F)(F)F [Example 93]
List the 5 entries from lowest Emax to highest Emax value. Show the ranking through the labels, in the order asked for.
V, III, II, I, IV

(A) C[C@@H](OCc1ccccc1)C(NC(=O)c1ccc2ccccc2c1OCc1ccc(C(F)(F)F)cc1)C(=O)O (stereo partly drawn) [Example 144]
(B) O=C(N[C@@H](CCc1ccccc1)C(=O)O)c1ccc2ccccc2c1OCc1ccc(C(F)(F)F)cc1 [Example 88]
Could you check which of A and B has a smaller value for Emax? Answer with the label corresponding to your selection.
B
(B: 64.4%, A: 140%)

(A) O=C(N[C@H](C(=O)O)C1CCCCC1)c1ccc2ccccc2c1OCc1ccc(C(F)(F)F)cc1 [Example 128]
(B) CC(C)(c1ccccc1)[C@H](NC(=O)c1ccc2cc(F)ccc2c1OCc1ccc(SC(F)(F)F)cc1)C(=O)O [Example 22]
API: POST /compare with A and B ; response names the item with higher Emax. Answer = label.
A
(A: 158%, B: 63.6%)
